// provenance: BigSolDB 2.1

# experimental.setup: in ethyl acetate, 298.15 K
metric: solubility (mole fraction)
Give the figure by itself; no unit, no explanation.

Consider the compound shown here: Cc1nc(-c2ccc(OCC(C)C)c(C#N)c2)sc1C(=O)O What is its recorded solubility (mole fraction)?
0.00456

---

# experimental.setup: in methanol, 323.15 K
metric: solubility (mole fraction)
No unit in the answer, only the number.

Form field: reported solubility (mole fraction) of Cc1nc(-c2ccc(OCC(C)C)c(C#N)c2)sc1C(=O)O
0.0045

---

# experimental.setup: in acetone, 328.15 K
metric: solubility (mole fraction)
// return a plain number; no unit text

Look at this molecule and give its reported solubility (mole fraction). Cc1nc(-c2ccc(OCC(C)C)c(C#N)c2)sc1C(=O)O
0.0171
